- Tested on: Rattus norvegicus
- protocolDescription: Antiinflammatory activity was assessed by the ability to improve the adjuvant induced arthritis in left secondary lesion in rats at oral doses, 33 mg/kg (volume change in the injected paw measured from day 9 to day 18)
- Type: functional
Field: label. Allowed values: rule met (Reduction < 20%) or rule not met (Reduction >= 20%).

>>> category("CC(C)(C)c1cc(/C=C2\\C(=O)Oc3ccc(C(=O)c4cccs4)cc32)cc(C(C)(C)C)c1O")
"rule met"
>>> category("CC1C(=O)Oc2ccc(C(=O)c3ccc(F)cc3)cc21 (centres undefined)")
"rule not met"
>>> category("CCC(CC)(C(=O)O)c1cc(C(=O)c2cccs2)ccc1OC")
"rule not met"
>>> category("O=C1Oc2ccc(C(=O)c3cccs3)cc2/C1=C/c1ccc(C(F)(F)F)cc1")
"rule met"
>>> category("O=C(c1ccc(O)c(C(Cc2ccccc2)C(=O)O)c1)c1cccs1 (centres undefined)")
"rule met"
>>> category("CCC(C(=O)O)c1cc(C(=O)c2cccs2)ccc1O (centres undefined)")
"rule not met"
>>> category("CC(C(=O)O)c1cc(C(=O)c2ccco2)ccc1O (centres undefined)")
"rule met"
>>> category("COc1ccc(C(=O)c2ccc(O)c(C(C)C(=O)O)c2)cc1 (centres undefined)")
"rule not met"
>>> category("Cc1ccc(C(=O)c2ccc3c(c2)C(C)C(=O)O3)s1 (centres undefined)")
"rule not met"
>>> category("O=C(O)/C(=C\\c1ccccc1)c1cc(C(=O)c2cccs2)ccc1O")
"rule met"
>>> category("CCCC(C(=O)O)c1cc(C(=O)c2cccs2)ccc1O (centres undefined)")
"rule not met"
>>> category("CC1(C)C(=O)Oc2ccc(C(=O)c3cccs3)cc21")
"rule not met"
>>> category("CC(C)(C(=O)O)c1cc(C(=O)c2cccs2)ccc1O")
"rule not met"
>>> category("CCC1C(=O)Oc2ccc(C(=O)c3cccs3)cc21 (centres undefined)")
"rule not met"
>>> category("CCC(CC)(C(=O)O)c1cc(C(=O)c2cccs2)ccc1O")
"rule not met"
>>> category("O=C1Oc2ccc(C(=O)c3cccs3)cc2/C1=C/c1ccccc1")
"rule not met"
>>> category("CCCCC1C(=O)Oc2ccc(C(=O)c3cccs3)cc21 (centres undefined)")
"rule met"
>>> category("COc1ccc(C(=O)c2ccc3c(c2)C(C)C(=O)O3)cc1 (centres undefined)")
"rule not met"
>>> category("CC(C(=O)O)c1cc(C(=O)c2ccccc2)ccc1O (centres undefined)")
"rule not met"
>>> category("O=C1Cc2cc(C(=O)c3cccs3)ccc2O1")
"rule met"
>>> category("CCCCC(C(=O)O)c1cc(C(=O)c2cccs2)ccc1O (centres undefined)")
"rule not met"
>>> category("C=CCc1cc(C(=O)c2cccs2)cc2c1OC(=O)C2C (centres undefined)")
"rule met"
>>> category("O=C(c1ccc2c(c1)C(C(=O)Nc1ccccc1)C(=O)O2)c1cccs1 (centres undefined)")
"rule not met"
>>> category("CCC1(CC)C(=O)Oc2ccc(C(=O)c3cccs3)cc21")
"rule not met"
